Experiment: protein stability index of a GFP-peptide fusion (yeast GPS) (PSI 1-4); higher = more stable; sorted into four equal gates, so the index is relative within each strain
Conditions: ubr1∆
Catalogue of protein stability index values
Output spec: single numeric token, no unit.

The following sequences have reported results that may help.
Query: Look up protein stability index for this sequence: DIPGVRFKVVKVSGVSL [RPS23A]
Result: 1.06

Query: So what's the measured protein stability index for this one? FQNLELETEQLSSELDS [SMC2]
Result: 2.69

Query: I have this sequence here, HDISKTETSNEDEDEDD [SNU114] , and I need its recorded protein stability index.
Result: 3.08

Continuing:
Query: Given WSTTGDNGELDLSGFNI [MED2] , state its recorded protein stability index.
Result: 2.93

* * *

Test: protein stability index of a GFP-peptide fusion (yeast GPS) (PSI 1-4); higher = more stable; sorted into four equal gates, so the index is relative within each strain
Conditions: ubr1∆
Would you please tag the item T when its protein stability index is 3 or above, and F when it is below?

Example cases with answers are listed next.
Query: Reported protein stability index at or above 3? ENLEESFLSKHALYLAP [SSN2]
Result: T

Query: Please tell me: is the sequence LAGKYIPNLTAKPFQVT [FAS1] at or over 3 in terms of protein stability index?
Result: F

Query: API: above_or_equal(metric=protein stability index, cutoff=3) for item ANTSNNLFGATANANKP [YJL041W/NSP1]
Result: T

Query: Given the entry ILYGLVDKGAIMKNKDF [YJL039C/NUP192] , answer whether its protein stability index meets or surpasses 3.
Result: F

Query: API: above_or_equal(metric=protein stability index, cutoff=3) for item IFSYLQFTSSLFKALKV [RGR1]
Result: F

***
Query: I'd appreciate it if you could say whether LKHYNGYDINYISKIGE [SWI1] has protein stability index at least equal to 3.
Result: F

Query: Hi, just wondering whether IVDFTLPPPPPPPGLDE [PRP8] shows protein stability index of 3 or higher.
Result: T

Query: Identify whether the reported protein stability index of the following sequence is 3 or greater: VVGTETRVNAQLESYEY [RRI1]
Result: F

Query: Is protein stability index at least 3? Consider SPSYSPTSPSYSPTSPS [RPO21]
Result: F

Query: Decide: protein stability index of LLINTNFNKFFKIWHGE [PCI8] >= 3?
Result: F

Query: Can SIDNDFSEEKAEEFDFN [YAR002W/NUP60] be said to have protein stability index at or above 3?
Result: T

Query: Tell me whether protein stability index is at least 3 here: AVARLKSMNKSAINQYN [SNF2]
Result: F

Query: Hi, just wondering whether QKKILSIRLKVPPTIAQ [RPL8A] shows protein stability index of 3 or higher.
Result: F

Query: Hi team, for YDPIKRIDAFNALEHKY [SSN3] , is the recorded protein stability index at or above 3?
Result: F

* * *

Assay: protein stability index of a GFP-peptide fusion (yeast GPS) (PSI 1-4); higher = more stable; sorted into four equal gates, so the index is relative within each strain
Conditions: pdr5∆
# protein stability index >= 3 gives Fulfilled, anything below gives Not fulfilled

Query: Check if protein stability index >= 3 (inclusive). Item: PERFMVFQLPTRLPAFE [RPC53]
Result: Not fulfilled

Next:
Query: In plain terms: is recorded protein stability index at least 3 for GGLGLNLQTADTVIIFD [SNF2] ?
Result: Fulfilled

Query: Please indicate if the recorded protein stability index for LEGSVSLPRFSKPVLIV [DIS3] meets or exceeds 3.
Result: Not fulfilled

Query: Hello, I need to know if NNNGNPGTTSTGNNNNI [GAL11] has measured protein stability index not below 3. Thanks!
Result: Fulfilled
